molecular target: BCRP (Homo sapiens, UniProt Q9UNQ0); test: bidirectional transport assay across hCMEC/D3 cell monolayer with or without Ko143; details: human, pH 7.4, Efflux ratio (ER), hCMEC/D3 without inhibitor Ko143, 42 μM; hCMEC/D3 monolayer
readout_label: efflux ratio at 2 h, 42 μM

Reported efflux ratio at 2 h, 42 μM for NC(=O)N1c2ccccc2C=Cc2ccccc21 [CBZ, carbamazepine] : what is it? 1.18

----------
biological target: BCRP (Homo sapiens); assay: bidirectional transport assay across hCMEC/D3 cell monolayer with or without Ko143; details: human, pH 7.4, with Ko143 1 μM
readout_label: Papp A→B at 2 h, 300 µM

Reported Papp A→B at 2 h, 300 µM for CCCC(CCC)C(=O)O [VPA, valproic acid] : what is it? 0.21 ×10⁻⁶ cm/s

----------
target: BCRP (Homo sapiens); assay: bidirectional transport assay across hCMEC/D3 cell monolayer with or without Ko143; settings: human, pH 7.4, with Ko143 1 μM
readout_label: Papp B→A at 2 h, […] µM (nm/s)
Report only the number, with the unit nm/s understood.

Request: Papp B→A at 2 h, […] µM, test system BCRP (Homo sapiens), entry NC(=O)N1c2ccccc2CC(=O)c2ccccc21 [OXC, oxcarbazepine] 1690

----------
target: BCRP (Homo sapiens, UniProt Q9UNQ0); test: bidirectional transport assay across hCMEC/D3 cell monolayer with or without Ko143; settings: human, pH 7.4
readout_label: Papp B→A at 2 h, 5 μM (×10⁻⁶ cm/s)
Report only the number, with the unit ×10⁻⁶ cm/s understood.

Reported Papp B→A at 2 h, 5 μM for O=C1c2c(O)ccc(O)c2C(=O)c2c(NCCNCCO)ccc(NCCNCCO)c21 : what is it? 12.7

----------
target: BCRP (Homo sapiens, UniProt Q9UNQ0); assay: bidirectional transport assay across hCMEC/D3 cell monolayer with or without Ko143; settings: human, pH 7.4, with Ko143 1 μM
readout_label: Papp B→A at 2 h, 60 µM (×10⁻⁶ cm/s)
Report only the number, with the unit ×10⁻⁶ cm/s understood.

Request: Papp B→A at 2 h, 60 µM, test system BCRP (Homo sapiens, UniProt Q9UNQ0), entry CC1(C)O[C@@H]2[C@@H](CO[C@@]3(COS(N)(=O)=O)OC(C)(C)O[C@@H]23)O1 [TPM, topiramate] 190

----------
Target: BCRP (Homo sapiens)
Sequence (Q9UNQ0 1-655): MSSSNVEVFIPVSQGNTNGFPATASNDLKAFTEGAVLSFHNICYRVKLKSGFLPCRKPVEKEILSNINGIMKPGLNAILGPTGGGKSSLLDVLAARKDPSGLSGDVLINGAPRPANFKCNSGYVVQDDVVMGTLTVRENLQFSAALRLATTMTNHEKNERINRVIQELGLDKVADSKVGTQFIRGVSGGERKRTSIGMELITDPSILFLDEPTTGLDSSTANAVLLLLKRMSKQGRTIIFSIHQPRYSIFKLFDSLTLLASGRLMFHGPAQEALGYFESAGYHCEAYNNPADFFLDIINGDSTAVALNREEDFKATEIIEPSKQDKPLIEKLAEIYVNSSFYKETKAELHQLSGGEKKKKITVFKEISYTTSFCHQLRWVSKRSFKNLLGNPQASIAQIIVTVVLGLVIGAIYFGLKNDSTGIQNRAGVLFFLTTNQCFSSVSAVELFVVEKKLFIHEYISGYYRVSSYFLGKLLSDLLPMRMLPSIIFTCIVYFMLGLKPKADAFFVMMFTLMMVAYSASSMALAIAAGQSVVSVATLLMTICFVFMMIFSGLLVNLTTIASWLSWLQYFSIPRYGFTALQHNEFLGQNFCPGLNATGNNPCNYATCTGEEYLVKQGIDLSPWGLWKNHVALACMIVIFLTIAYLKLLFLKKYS
Test: bidirectional transport assay across hCMEC/D3 cell monolayer with or without Ko143
Conditions: human, pH 7.4, with Ko143 1 μM
readout_label: Papp B→A at 2 h, 5 μM (×10⁻⁶ cm/s)
Report only the number, with the unit ×10⁻⁶ cm/s understood.

Reported Papp B→A at 2 h, 5 μM for O=C1c2c(O)ccc(O)c2C(=O)c2c(NCCNCCO)ccc(NCCNCCO)c21 : what is it? 10.6
